test: Selectivity index, CC50 for human HepG2 cells to IC50 for chloroquine-resistant/mefloquine-sensitive Plasmodium falciparum W2 ring stage forms; format: toxicity; conditions: read-out: Ratio CC50/IC50
Reported selectivity ratio values for a set of compounds

Ask: Which selectivity ratio is reported for this compound? O=C1C(O)=C([C@H]2CC[C@H](c3ccc(Cl)cc3)CC2)C(=O)c2ccccc21 [ATOVAQUONE]
Reply: > 328

Ask: Record: "CC(C)=CCC1=C(OCc2cn(-c3ccc(S(N)(=O)=O)cc3)nn2)C(=O)c2ccccc2C1=O"
Reply: < 4.6

Ask: Request: CC(C)=CCC1=C(O)C(=O)c2ccccc2C1=O [LAPACHOL]
Reply: > 33.4
